# Tested on: CAKI-1 renal
# assayText: NCI tumour cell line growth inhibition, 48 h
Listed here are molecules together with their documented TGI.
assayMetric: TGI

O=C(O)c1cccc2cccc(-c3cccc4cccc(C(=O)O)c34)c12; > 100 µM
COc1ccc(Cn2cc3c(c2)-c2oncc2CC3)cc1; > 100 µM
Cc1cc2ncn(C3CCCCO3)c2cc1C (stereo not drawn); > 100 µM

----------
# Tested on: HOP-62 NSCLC
# assayText: NCI tumour cell line growth inhibition, 48 h
Property: TGI; scope: individual compounds
assayMetric: TGI

COC1C2C=CC(C2)[C@H]1[N+](=O)[O-] (stereo partly specified); > 100 µM
O=C1C=CC(=O)c2c(O)c(N3CCC[C@H]3CO)c(Cl)c(O)c21; > 10 µM
CN1C(=O)N(C)C2C1NN=c1s/c(=C\c3ccc(F)cc3)c(=O)n12 (stereo unspecified); > 100 µM
O=C1C(c2ccccc2)=[N+]([O-])c2ccccc21; 37.4 µM
COc1cccc2c1C(=O)c1c(O)c3c(c(O)c1C2=O)C[C@H](O)C[C@@H]3OC1CC(N)C(O)C(C)O1 (stereo partly specified); 10.5 µM
CC(C)C(=O)C(C)(C)CCc1ccccn1; > 100 µM
COc1ccc(C2=NN(C=O)C(c3cccc(Nc4ccnc5cc(Cl)ccc45)c3)C2)cc1 (stereo unspecified); 16.6 µM
CN(C)CCCNC(=O)c1ccc2c(c1)oc1cc3ccccc3c(=O)n12; > 50 µM
COC(=O)C1=C(C(=O)OC)SC(=CC#CC=C2SC(C(=O)OC)=C(C(=O)OC)S2)S1; 12.2 µM
COc1ccc(/C=C2\CCCC(C(NO)c3ccc(OC)cc3)C2=NO)cc1 (stereo unspecified); > 100 µM
COc1cc(C(c2c(O)c3ccccc3oc2=O)c2c(O)c3ccccc3oc2=O)cc(Br)c1O; 45.8 µM
Nc1ccccc1C#C/C=C\C#Cc1ccccc1[N+](=O)[O-]; 48.6 µM
CC1=C(C(=O)Nc2cccc(Cl)c2)C(c2ccccc2F)C(C(=O)Nc2cccc(Cl)c2)=C(C)N1; 31.3 µM
CCOC(=O)c1s/c(=N\Nc2nc3ccccc3cc2C2OCCO2)n(Cc2ccccc2)c1C; > 100 µM
O=S(=O)(O)c1ccc(N=Nc2ccc(N=Nc3ccc(/C=C/c4ccc(N=[N+]([O-])c5ccc(/C=C/c6ccc(N=Nc7ccc(N=Nc8ccc(S(=O)(=O)O)cc8)cc7)cc6S(=O)(=O)O)c(S(=O)(=O)O)c5)cc4S(=O)(=O)O)c(S(=O)(=O)O)c3)cc2)cc1; > 100 µM
CCOC(=O)/C=C1\CCCC12OCCO2; > 100 µM
CCC[n+]1cc2cc(OC)c(OC)cc2c2c1-c1cc3c(cc1C2)OCO3; 19.7 µM
N#C/C(C(=O)Nc1ccc(Cl)cc1)=C(/N)N1CCCC1; > 100 µM
COc1ccc2c(c1)/C(=C\c1c(Cl)[nH]c3ccc(OC)cc13)C(=O)N2; 95.2 µM
Cc1ccc(-c2cc(-c3ccccc3)c(C#N)c(=O)n2C2OC(CO)C(O)C(O)C2O)cc1 (stereo unspecified); > 100 µM
O=C(/C=C/C(=O)N1CCCC1)N1CCCC1; > 100 µM
Cc1cc(Cl)ccc1Nc1nc(C(F)(F)F)ccc1C(=O)N/N=C/c1ccc([N+](=O)[O-])cc1; > 35.7 µM
Cc1cccc(-n2c(=S)[nH]c3c(sc(=O)n3-c3ccccc3C)c2=O)c1; > 100 µM
CC(=O)OCC(OC(C)=O)C(OC(C)=O)C(OC(C)=O)C(=O)CNn1c(-c2ccccc2Cl)nc2ccccc2c1=O (stereo unspecified); > 100 µM
C/C(Cl)=N\OC(=O)Nc1ccc(C)cc1; > 100 µM
CC[C@]1(O)C(=O)OCc2c1cc1n(c2=O)Cc2cc3c(N)cccc3nc2-1; > 100 µM

Cited source for all entries: PubChem BioAssay (NCI)
